Measurement Target: GADD45β/MKK7 complex (Homo sapiens, UniProt O14733)
Construct: Full-length human (h)MKK7 was expressed as a protein fused to an N-terminal GST tag (GST-MKK7); made in house
Sequence (O14733 whole entry, the tested form may be a part, one chain of several): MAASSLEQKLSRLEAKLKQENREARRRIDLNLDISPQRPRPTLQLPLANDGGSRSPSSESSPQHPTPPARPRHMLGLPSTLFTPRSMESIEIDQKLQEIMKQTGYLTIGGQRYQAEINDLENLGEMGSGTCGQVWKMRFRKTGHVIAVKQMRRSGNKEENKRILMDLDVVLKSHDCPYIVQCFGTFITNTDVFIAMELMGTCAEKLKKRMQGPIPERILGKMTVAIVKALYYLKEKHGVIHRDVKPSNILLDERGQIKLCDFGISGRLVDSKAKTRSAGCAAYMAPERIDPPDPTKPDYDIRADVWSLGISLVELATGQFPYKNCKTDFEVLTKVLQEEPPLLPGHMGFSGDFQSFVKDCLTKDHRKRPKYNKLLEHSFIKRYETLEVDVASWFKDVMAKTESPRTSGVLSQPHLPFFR
Protocol Summary: ELISA GADD45β/MKK7 competition assay
Assay type: binding
Details: Table S2; peptide at 42 nM; read-out: % inhibition (ELISA)
Where a SMILES comes first, the peptide text is derived from it.

{"Compound": "CC(=O)N[C@@H](Cc1c[nH]c2ccccc12)C(=O)N[C@@H](CCC(=O)O)C(=O)N[C@@H](CCCCN)C(=O)N[C@@H](Cc1c[nH]c2ccccc12)C(N)=O [Ac-WEKW-NH2] (Ac-WEKW-NH2)", "Measurement Target": "GADD45β/MKK7 complex (Homo sapiens, UniProt O14733)", "inhibition at 0.042 µM [%]": 58}
{"Compound": "CC(=O)N[C@@H](Cc1ccc(O)cc1)C(=O)N[C@@H](CCC(=O)O)C(=O)N[C@@H](Cc1c[nH]cn1)C(=O)N[C@@H](Cc1c[nH]c2ccccc12)C(N)=O [Ac-YEHW-NH2] (Ac-YEHW-NH2)", "Measurement Target": "GADD45β/MKK7 complex (Homo sapiens, UniProt O14733)", "inhibition at 0.042 µM [%]": 64}
{"Compound": "CC(=O)N[C@@H](Cc1ccc(O)cc1)C(=O)N[C@@H](CC(=O)O)C(=O)N[C@@H](Cc1c[nH]cn1)C(=O)N[C@@H](Cc1ccccc1)C(N)=O", "Measurement Target": "GADD45β/MKK7 complex (Homo sapiens, UniProt O14733)", "inhibition at 0.042 µM [%]": 94}
{"Compound": "CC(=O)N[C@@H](Cc1c[nH]c2ccccc12)C(=O)N[C@@H](CC(=O)O)C(=O)N[C@@H](CCCCN)C(=O)N[C@@H](Cc1ccccc1)C(N)=O [Ac-WDKF-NH2] (Ac-WDKF-NH2)", "Measurement Target": "GADD45β/MKK7 complex (Homo sapiens, UniProt O14733)", "inhibition at 0.042 µM [%]": 25}
{"Compound": "CC(=O)N[C@@H](Cc1c[nH]c2ccccc12)C(=O)N[C@@H](CCC(=O)O)C(=O)N[C@@H](CCCNC(=N)N)C(=O)N[C@@H](Cc1ccccc1)C(N)=O [Ac-WERF-NH2] (Ac-WERF-NH2)", "Measurement Target": "GADD45β/MKK7 complex (Homo sapiens, UniProt O14733)", "inhibition at 0.042 µM [%]": 28}

// provenance: paper PMC4197335
